System: Rattus norvegicus
protocol-details: Anticonvulsant activity measured to prevent maximal electroshock seizure in rats when administered intraperitoneally
Type: functional
reported-conditions: ip
Could you please report measured ED50 for the items listed next?

Below, each entry is followed by its recorded ED50 result.
{"molecule": "O=C1NC(=O)C(Cc2cccc(Br)c2)N1 (stereo not drawn)", "subject-of-test": "Rattus norvegicus", "test-value": "> 50 mg/kg"}
{"molecule": "COc1ccc(/C=C2/NC(=O)NC2=O)cc1OC", "subject-of-test": "Rattus norvegicus", "test-value": "> 200 mg/kg"}

Below are 8 molecules. Give each one its ED50.
1. CN1C(=O)NC(Cc2cccc(Br)c2)C1=O (stereo not drawn)
2. N#CCCN1C(=O)NC(Cc2cccc(C(F)(F)F)c2)C1=O (stereo not drawn)
3. COc1ccc(OC)c(CC2(C)NC(=O)NC2=O)c1 (stereo not drawn)
4. O=C1NC(=O)/C(=C\c2cccc(Br)c2)N1
5. CN1C(=O)NC(Cc2cccc(C(F)(F)F)c2)C1=O (stereo not drawn)
6. COc1ccc(CC2(C)NC(=O)NC2=O)c(OC)c1 (stereo not drawn)
7. COc1ccc(OC)c(CC2NC(=O)NC2=O)c1 (stereo not drawn)
8. O=C1NC(Cc2cccc(C(F)(F)F)c2)C(=O)N1CCO (stereo not drawn)

Reply:
1. 30 mg/kg
2. > 50 mg/kg
3. > 50 mg/kg
4. > 50 mg/kg
5. > 50 mg/kg
6. > 50 mg/kg
7. > 50 mg/kg
8. 45 mg/kg

###

Tested on: Rattus norvegicus
protocol-details: Anticonvulsant activity was measured by the ability to prevent intraperitoneally
Format: functional
reported-conditions: ip
measure-name: ED50

A selection of reference data follows.
{"compound": "COc1ccc(/C=C2/NC(=O)NC2=O)cc1OC", "ED50": "> 50 mg/kg"}
{"compound": "COc1ccc(CC2(C)NC(=O)NC2=O)cc1OC (stereo not given)", "ED50": "> 200 mg/kg"}
{"compound": "CCCC(CCC)C(=O)O", "ED50": "> 500 mg/kg"}
{"compound": "O=C1NC(=O)/C(=C\\c2cccc(Cl)c2)N1", "ED50": "> 200 mg/kg"}
{"compound": "O=C1NC(=O)C(Cc2cccc(Cl)c2)N1 (stereo not given)", "ED50": "~150 mg/kg"}

The following compounds each have a reported value; give each one's ED50.
1. O=C1NC(=O)C(Cc2cccc(Br)c2)N1 (stereo not given)
2. COc1ccc(OC)c(/C=C2/NC(=O)NC2=O)c1
3. CCOC(=O)CN1C(=O)NC(Cc2cccc(C(F)(F)F)c2)C1=O (stereo not given)
4. O=C1NC(=O)/C(=C\c2cccc(C(F)(F)F)c2)N1
5. O=C1NC(Cc2cccc(C(F)(F)F)c2)C(=O)N1CCO (stereo not given)

Reply:
1. > 200 mg/kg
2. > 200 mg/kg
3. > 100 mg/kg
4. > 200 mg/kg
5. 100 mg/kg

Please state, for each entry, its recorded ED50.
1. CN1C(=O)NC(Cc2cccc(C(F)(F)F)c2)C1=O (stereo not given)
2. CN1C(=O)NC(Cc2cccc(Br)c2)C1=O (stereo not given)
3. O=C1NC(=O)/C(=C\c2cccc(Br)c2)N1
4. COc1ccc(CC2NC(=O)NC2=O)cc1OC (stereo not given)
5. O=C1NC(=O)C(c2ccccc2)(c2cccc(C(F)(F)F)c2)N1 (stereo not given)

Reply:
> 100 mg/kg
~100 mg/kg
> 200 mg/kg
> 200 mg/kg
> 200 mg/kg
